B1: COUP transcription factor 1, residues 83 to 159; numbered along this chain, P10589 (parent)
chain: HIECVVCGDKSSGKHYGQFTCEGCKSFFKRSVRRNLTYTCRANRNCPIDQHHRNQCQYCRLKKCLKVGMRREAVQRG

variants of: B1; assay: abundance fitness (aPCA) (normalised: wild type 0, dead -1); higher = more abundant; growth selection in yeast, the domain comes from the species named; settings: Homo sapiens
Reported abundance fitness by item:
metric_name: abundance fitness

seq_text="HIECVVCGDKSSGKHYGQFTCEGCKSFFKRSRRRNLTYTCRANRNCPIDQHHRNQCQYCRLKKCLKVGMRREAVQRG [V32R]" numeric_readout=-0.66
seq_text="HIECVVCGDKSSGKHYGQFTCEGCKSFFKRSVRRNLTYTCRANRNCPTDQHHRNQCQYCRLKKCLKVGMRREAVQRG [I48T]" numeric_readout=-0.094
seq_text="HIECVVCGDKSSGKHYGQFTCEGCKSFFKGSVRRNLTYTCRANRNCPIDQHHRNQCQYCRLKKCLKVGMRREAVQRG [R30G]" numeric_readout=-0.079
seq_text="HIECVVCGDKSSGKHYGQFTCEGCKSFFKRSVRRNLTYTCRANRNCPIDQHHRNQCQYERLKKCLKVGMRREAVQRG [C59E]" numeric_readout=-0.696
seq_text="HIECVVCGDKSSGKHYHQFTCEGCKSFFKRSVRRNLTYTCRANRNCPIDQHHRNQCQYCRLKKCLKVGMRREAVQRG [G17H]" numeric_readout=-0.459
seq_text="HIECVVCGDKSSGKHYGQFTCEGCKSFFKRSVRRNLTYTCRGNRNCPIDQHHRNQCQYCRLKKCLKVGMRREAVQRG [A42G]" numeric_readout=0.217
seq_text="HIECVVCGDKSSGKHYGQFACEGCKSFFKRSVRRNLTYTCRANRNCPIDQHHRNQCQYCRLKKCLKVGMRREAVQRG [T20A]" numeric_readout=-0.051
seq_text="HIECVVCGDKSSGKHYGDFTCEGCKSFFKRSVRRNLTYTCRANRNCPIDQHHRNQCQYCRLKKCLKVGMRREAVQRG [Q18D]" numeric_readout=0.08
seq_text="HIECVVCGDKSSGKHYGQFTCEGCKSFFKRSVGRNLTYTCRANRNCPIDQHHRNQCQYCRLKKCLKVGMRREAVQRG [R33G]" numeric_readout=-0.029
seq_text="HIECVVCGDKSSGKHYGQFTCEGCKWFFKRSVRRNLTYTCRANRNCPIDQHHRNQCQYCRLKKCLKVGMRREAVQRG [S26W]" numeric_readout=0.014
seq_text="HIECVVCGDKSSGKHYYQFTCEGCKSFFKRSVRRNLTYTCRANRNCPIDQHHRNQCQYCRLKKCLKVGMRREAVQRG [G17Y]" numeric_readout=-0.396
seq_text="HIECVVCGDKSSGKHYGQFTCEGCKSFFKRSKRRNLTYTCRANRNCPIDQHHRNQCQYCRLKKCLKVGMRREAVQRG [V32K]" numeric_readout=-0.181
seq_text="HIECVVCGDKSSGKHYGQFTCEGCKSFFKRSVRRNLTYTCRANRNCPIDQHHRNQCQYCRLKLCLKVGMRREAVQRG [K63L]" numeric_readout=-0.337
seq_text="HIECVVCGDKSSGKHYGQFTCEGCKSFFKRSVRRNLTYTCRANRNHPIDQHHRNQCQYCRLKKCLKVGMRREAVQRG [C46H]" numeric_readout=-0.536
seq_text="HIECVVCGDKSSGKHYGQFTCEGCKSFFKRSVRRNLTYTCRANRNCPIDQHHRNQCQYCRLKKCLKVGMRREAVQRH [G77H]" numeric_readout=-0.004
seq_text="HIECVVCGDKSSGKHYGQFTGEGCKSFFKRSVRRNLTYTCRANRNCPIDQHHRNQCQYCRLKKCLKVGMRREAVQRG [C21G]" numeric_readout=-0.744
seq_text="HIECVVCGDKSSGKHYGQFTCEGCKSFFKRSVRRNLTYTCRANRNCPDDQHHRNQCQYCRLKKCLKVGMRREAVQRG [I48D]" numeric_readout=-0.302
seq_text="HIECVVCGDKSSGKHYGQFTCEGCKSFFKRSVRRNLTYTCRANRNCPIDQHHRNQCQGCRLKKCLKVGMRREAVQRG [Y58G]" numeric_readout=-0.18
seq_text="HIECVVCGDKSSGKHYGQFTCEGCKSFFKRSVRRNLTKTCRANRNCPIDQHHRNQCQYCRLKKCLKVGMRREAVQRG [Y38K]" numeric_readout=-0.831
seq_text="HIECVVCGDKSSGKHYGQFTCEGCKSFFKRSVRRNLTYTCRANRNCPIDQHHRNQCQYCRLKKCLKVGMRREAVQRL [G77L]" numeric_readout=-0.095
seq_text="HIECVVCGDKSSGKHYGQFTCEGCKSFFKRSVRRNLTYTCRANRNCPIDQNHRNQCQYCRLKKCLKVGMRREAVQRG [H51N]" numeric_readout=0.102
seq_text="HIECVVCGDKSSGKHYGQFTCEGCKSFFKRSVRRNLTYTCRANRNCPIDQHHRNQCQYCRLKKCLKVGMRRQAVQRG [E72Q]" numeric_readout=-0.319
seq_text="HIECVVCGDKSSGKHYGQFTCEGCKSQFKRSVRRNLTYTCRANRNCPIDQHHRNQCQYCRLKKCLKVGMRREAVQRG [F27Q]" numeric_readout=-0.739
seq_text="HIECVVCGDKSSGKHYGQFTCEGCKSFFKRSVRRNLTYNCRANRNCPIDQHHRNQCQYCRLKKCLKVGMRREAVQRG [T39N]" numeric_readout=0.103
seq_text="HIECVVCGDKSSGKHYGQFTCEGCKSFFKRSVRRNLTYTCRANRNCPIDQHHRNQCQYYRLKKCLKVGMRREAVQRG [C59Y]" numeric_readout=-0.789
seq_text="HIECVVCGDKSSGKHYGQFTCEGCKSFFKRSVRRNLTYTCRANRNCPIDQHHRNQCQYCRLKKCLKVGMRREAVQRW [G77W]" numeric_readout=-0.23
seq_text="HIECVVCGDKSSGKHYGQFTCEGCKSFFKRSVRRNLTATCRANRNCPIDQHHRNQCQYCRLKKCLKVGMRREAVQRG [Y38A]" numeric_readout=-0.378
seq_text="HIECVVCGDKSSGKHYGQFTCEGCKSFFKRSVRRNLTYTCRANRNCPIRQHHRNQCQYCRLKKCLKVGMRREAVQRG [D49R]" numeric_readout=-0.313
seq_text="HIECVVCGDKSSGKHYGQFTCEGCKSFFKRSVRRNLTYTCRANRNCPIDQHHRNQCQYCRLKKCLKVGMRRGAVQRG [E72G]" numeric_readout=-0.258
seq_text="HIECVVCGDKSSGKHYGQFTLEGCKSFFKRSVRRNLTYTCRANRNCPIDQHHRNQCQYCRLKKCLKVGMRREAVQRG [C21L]" numeric_readout=-0.9
seq_text="HIECVVCGDKSSGKHYGQFTCEGCKSFFKRSVRRNLTYTCRANRNCPIDQHARNQCQYCRLKKCLKVGMRREAVQRG [H52A]" numeric_readout=0.041
seq_text="HIECVVCGDKSSGKHYGQFTCEGCKSFFKRSVRRNLTYTCRANRNCPIDQHHRIQCQYCRLKKCLKVGMRREAVQRG [N54I]" numeric_readout=0.092
seq_text="HIECVVCGDKSSGKHYGQFTCEGKKSFFKRSVRRNLTYTCRANRNCPIDQHHRNQCQYCRLKKCLKVGMRREAVQRG [C24K]" numeric_readout=-0.697
seq_text="HIECVVCGDKSSGKHYGQFTCEGCKSFFKRSVRRMLTYTCRANRNCPIDQHHRNQCQYCRLKKCLKVGMRREAVQRG [N35M]" numeric_readout=-0.118
seq_text="HIECVVCGDKSSGKHYGQFTCEGCKSFFKRSVRRNLTYTCRANRNCPIDQHHRKQCQYCRLKKCLKVGMRREAVQRG [N54K]" numeric_readout=-0.089
seq_text="HIECVVCGDKSSGKHYGQFTCEGCKSFFKRSQRRNLTYTCRANRNCPIDQHHRNQCQYCRLKKCLKVGMRREAVQRG [V32Q]" numeric_readout=-0.299
seq_text="HIECVVCGDKSSGKHYGQFTCEGCKSFFKRSVRRNPTYTCRANRNCPIDQHHRNQCQYCRLKKCLKVGMRREAVQRG [L36P]" numeric_readout=0.03
seq_text="HIECVVCGDKSSGKHYGQFTCEGCKSFFKRSVRRNLTYTCRAVRNCPIDQHHRNQCQYCRLKKCLKVGMRREAVQRG [N43V]" numeric_readout=0.128
seq_text="HIECVVCGDKSSGKHYGQFTCEGCKSFFKRSVRRLLTYTCRANRNCPIDQHHRNQCQYCRLKKCLKVGMRREAVQRG [N35L]" numeric_readout=-0.513
seq_text="HIECVVCGDKSSGKHYGQFTCEGCKSFFKRSVRRNLTYTCRANRNCPIDQHHRNQCQYCRLKKCLKVGMRYEAVQRG [R71Y]" numeric_readout=0.089
seq_text="HIECVVCGDKSSGKHYGQFTCEGCKSFFKRSVRRNLTYTCRANRNCPIDQHHRNQCQYCRLKKCLKVGMRREAVQRS [G77S]" numeric_readout=0.064

Data provenance is the Human Domainome abundance scans (Beltran et al. 2025).
